Molecular target: Ubiquitin carboxyl-terminal hydrolase 17-like protein 5 (Homo sapiens) (UniProt A8MUK1)
Sequence (A8MUK1 whole entry, looked up): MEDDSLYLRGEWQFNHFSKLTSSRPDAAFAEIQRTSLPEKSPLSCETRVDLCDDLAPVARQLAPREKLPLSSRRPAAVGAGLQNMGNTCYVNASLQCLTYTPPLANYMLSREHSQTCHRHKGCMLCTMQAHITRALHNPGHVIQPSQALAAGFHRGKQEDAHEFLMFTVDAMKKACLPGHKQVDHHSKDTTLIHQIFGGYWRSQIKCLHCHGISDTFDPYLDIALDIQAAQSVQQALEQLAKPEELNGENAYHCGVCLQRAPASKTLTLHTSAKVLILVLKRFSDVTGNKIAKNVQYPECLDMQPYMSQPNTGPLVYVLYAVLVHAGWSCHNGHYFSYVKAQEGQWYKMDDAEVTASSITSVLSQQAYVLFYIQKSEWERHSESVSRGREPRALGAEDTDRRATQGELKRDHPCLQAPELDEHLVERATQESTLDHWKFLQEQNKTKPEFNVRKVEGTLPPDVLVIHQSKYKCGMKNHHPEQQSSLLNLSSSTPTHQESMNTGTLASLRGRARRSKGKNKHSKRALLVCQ
Test: ubiquitin-specific protease 17 DUB inhibitors, concentration-effect assay, cell-free, verification of initial screening actives (AID 1645864)
Conditions: purified USP17, ubiquitin-rhodamine cleavage fluorescence, 3 h
Active and inactive are the calls of the source.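 How the source made its calls: active means maximal inhibition of USP17 at or above 30% in the confirmation dose-response, a value not among the printed readouts; inactive means the rest.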
Pick one: active, inactive

Prompt: Short answer needed: outcome of this test for CCOc1ccccc1NC(=O)COc1cc(OC)ccc1C(=O)c1ccccc1 ?
Response: inactive

Prompt: Short answer needed: outcome of this test for O=S1(=O)CCN(Cc2cccnc2)c2c(F)nc(N3CCOCC3)c(F)c21 ?
Response: inactive

Prompt: Short answer needed: outcome of this test for Cc1ccc2[nH]c(=O)c(CN(Cc3cccnc3)C(=O)c3cccc(Cl)c3)cc2c1 ?
Response: inactive

Prompt: Short answer needed: outcome of this test for Cc1ccc(-c2nc(NC(=O)Nc3ccc(Cl)cc3)sc2C)cc1 ?
Response: active

Prompt: Short answer needed: outcome of this test for Cc1cc(C)n(-c2ccc(C(=O)Nc3cccc(S(=O)(=O)N4CCCC4)c3)cc2)n1 ?
Response: active

Prompt: Short answer needed: outcome of this test for O=C1Nc2c(Cl)cc(Cl)cc2C1(O)c1sc(NC2CCCCC2)nc1-c1ccccc1 (stereo not drawn) ?
Response: active

Prompt: Short answer needed: outcome of this test for Cc1ccnc(NC(=O)c2ccn(COc3ccc(Cl)cc3)n2)c1 ?
Response: active

Prompt: Short answer needed: outcome of this test for Cc1ccc(-c2nc(NC(=O)COc3ccc(Cl)cc3)no2)cc1 ?
Response: active

====

Molecular target: Ubiquitin carboxyl-terminal hydrolase 17-like protein 5 (Homo sapiens) (UniProt A8MUK1)
Assay: ubiquitin-specific protease 17 DUB inhibitors, concentration-effect assay, cell-free, verification of initial screening actives (AID 1645864)
Settings: purified USP17, ubiquitin-rhodamine cleavage fluorescence, 3 h
Active and inactive are the calls of the source.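 Rule for the calls: active = maximal inhibition of USP17 at or above 30% in the confirmation dose-response, a value not among the printed readouts; inactive = the rest.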
Pick one: active, inactive

Prompt: Short answer needed: outcome of this test for Cc1cc(N2CCC(NC(=O)NCc3ccc(F)cc3)C2=O)ccc1F (centres undefined) ?
Response: active

Prompt: Short answer needed: outcome of this test for Cc1ccc(S(=O)(=O)Nc2ccccc2SCCS(=O)(=O)c2ccc(Cl)cc2)cc1 ?
Response: inactive

Prompt: Short answer needed: outcome of this test for Cc1cc(C)c2cc(C(=O)NC3CCN(Cc4ccccc4)CC3)[nH]c2c1 ?
Response: active

Prompt: Short answer needed: outcome of this test for O=c1c(Nc2cccc(F)c2)nc2ccncc2n1Cc1ccccc1 ?
Response: active

Prompt: Short answer needed: outcome of this test for O=C(Cn1c(=O)n(CCCC(=O)N2CC=C(c3ccccc3)CC2)c(=O)c2ccccc21)NCCC1=CCCCC1 ?
Response: active

Prompt: Short answer needed: outcome of this test for O=[N+]([O-])c1ccc(NCc2ccc(-c3cccs3)s2)nc1 ?
Response: active

Prompt: Short answer needed: outcome of this test for COc1cccc(NC(=O)C2Cn3ccnc3C3(CCN(C(C)=O)CC3)O2)c1 (centres undefined) ?
Response: inactive

Prompt: Short answer needed: outcome of this test for Cc1ccc(Nc2nc(NCCc3ccccc3)nc3c2cnn3C)cc1 ?
Response: active

Prompt: Short answer needed: outcome of this test for CCOCCCn1c(SCC(=O)Nc2ccccc2C(F)(F)F)nc2ccccc2c1=O ?
Response: active

====

Target: Ubiquitin carboxyl-terminal hydrolase 17-like protein 5 (Homo sapiens)
Experiment: ubiquitin-specific protease 17 DUB inhibitors, concentration-effect assay, cell-free, verification of initial screening actives (AID 1645864)
Settings: purified USP17, ubiquitin-rhodamine cleavage fluorescence, 3 h
Activity calls are given as the source filed them.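 Rule for the calls: active = maximal inhibition of USP17 at or above 30% in the confirmation dose-response, a value not among the printed readouts; inactive = the rest.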
endpointName: IC50

Prompt: IC50 of CCCCCCCc1cc(O)cc(O)c1 on Ubiquitin carboxyl-terminal hydrolase 17-like protein 5 (Homo sapiens)?
Response: > 50 µM (inactive)

Prompt: IC50 of Cc1c(S(=O)(=O)NC2CCCCNC2=O)sc2ccc(Cl)cc12 (configuration not stated) on Ubiquitin carboxyl-terminal hydrolase 17-like protein 5 (Homo sapiens)?
Response: 43.1 µM

Prompt: IC50 of CN1c2ccccc2CN(CC(N)=O)CC1Cc1ccccc1 (configuration not stated) on Ubiquitin carboxyl-terminal hydrolase 17-like protein 5 (Homo sapiens)?
Response: > 50 µM (inactive)

Prompt: IC50 of Cc1cc(=O)n2c3c(c4c(cc13)c(CO)cc(=O)n4C)OC2 on Ubiquitin carboxyl-terminal hydrolase 17-like protein 5 (Homo sapiens)?
Response: 9.79 µM

Prompt: IC50 of Cc1cc(C(=O)Nc2cc(C)n(Cc3ccc(Cl)cc3)n2)no1 on Ubiquitin carboxyl-terminal hydrolase 17-like protein 5 (Homo sapiens)?
Response: > 50 µM (inactive)

Prompt: IC50 of Cc1ccc(C(=O)Nc2ccc3c(c2)C(=O)N(C)c2ccccc2O3)cc1C on Ubiquitin carboxyl-terminal hydrolase 17-like protein 5 (Homo sapiens)?
Response: > 50 µM (inactive)

Prompt: IC50 of O=C(NCc1ccc2c(c1)OCO2)c1nn(C23CC4CC(CC(C4)C2)C3)cc1[N+](=O)[O-] on Ubiquitin carboxyl-terminal hydrolase 17-like protein 5 (Homo sapiens)?
Response: > 50 µM (inactive)

====

Biological target: Ubiquitin carboxyl-terminal hydrolase 17-like protein 5 (Homo sapiens) (UniProt A8MUK1)
Assay: ubiquitin-specific protease 17 DUB inhibitors, concentration-effect assay, cell-free, verification of initial screening actives (AID 1645864)
Conditions: purified USP17, ubiquitin-rhodamine cleavage fluorescence, 3 h
Activity calls are given as the source filed them.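 How the source made its calls: active means maximal inhibition of USP17 at or above 30% in the confirmation dose-response, a value not among the printed readouts; inactive means the rest.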
Pick one: active, inactive

Prompt: Short answer needed: outcome of this test for Cc1cc(C)c2sc(N(CCCn3ccnc3)C(=O)Cc3ccccc3)nc2c1 ?
Response: active

Prompt: Short answer needed: outcome of this test for CCn1cnc2c1c(=O)n(CC(=O)NCc1ccccc1Cl)c(=O)n2Cc1ccccc1 ?
Response: inactive

Prompt: Short answer needed: outcome of this test for Cc1ccc2nc(CNC(=O)c3ccccc3-c3nc(-c4ccc(F)cc4)no3)[nH]c2c1 ?
Response: active

Prompt: Short answer needed: outcome of this test for O=C(Cn1c(CSc2ccccc2)nc2ccccc21)Nc1ccccc1F ?
Response: active

Prompt: Short answer needed: outcome of this test for Cc1ccc(-n2c(-c3ccccc3)cn3c4c(=O)[nH]c(=O)n(C)c4nc23)cc1Cl ?
Response: active

Prompt: Short answer needed: outcome of this test for Fc1ccccc1Cc1nc(-c2ccc3nncn3c2)no1 ?
Response: inactive

Prompt: Short answer needed: outcome of this test for O=S(=O)(c1ccccc1Cl)N1CCN(c2ccc3nnc(-c4ccco4)n3n2)CC1 ?
Response: inactive

Prompt: Short answer needed: outcome of this test for O=C(CC1Oc2ccccc2NC1=O)Nc1ccccc1Br (centres undefined) ?
Response: active

Prompt: Short answer needed: outcome of this test for COc1ccc(OC)c(-n2c(SCC(=O)N3CCc4ccccc43)nnc2-c2cccc(S(=O)(=O)N(C)C)c2)c1 ?
Response: active

Prompt: Short answer needed: outcome of this test for Cc1sc2ccn(C)c(=O)c2c1C(=O)NC1CCCC1 ?
Response: active

Prompt: Short answer needed: outcome of this test for COc1ccc(CCNC(=O)CCCn2c(=O)c3ccccc3n(CC(=O)OCc3ccccc3)c2=O)cc1OC ?
Response: active

Prompt: Short answer needed: outcome of this test for Cc1cccc(C(=O)OCC(=O)Nc2ccc3[nH]c(=O)[nH]c3c2)c1C ?
Response: active

Prompt: Short answer needed: outcome of this test for Cc1cccc(C)c1NC(=O)Cn1c(=O)n(CCCCC(=O)NCc2ccc3c(c2)OCO3)c(=O)c2ccccc21 ?
Response: active

Prompt: Short answer needed: outcome of this test for O=C(CCc1nnc2n(Cc3ccccc3)c(=O)c3ccccc3n12)N1CCN(c2ccccn2)CC1 ?
Response: active

Prompt: Short answer needed: outcome of this test for Cc1c2c(nc3ccccc13)-c1ccccc1CC2 ?
Response: inactive

Prompt: Short answer needed: outcome of this test for O=C(Nc1ccc2c(c1)OCCO2)c1cc(CN2CCCC2)on1 ?
Response: inactive

Prompt: Short answer needed: outcome of this test for CC(=O)c1oc2nc3c(c(-c4ccc(Cl)cc4)c2c1N)CCc1ccccc1-3 ?
Response: inactive

Prompt: Short answer needed: outcome of this test for O=C(Cc1nnc2c(-c3nc(C4CC4)no3)cccn12)Nc1ccccc1 ?
Response: active

Prompt: Short answer needed: outcome of this test for O=C(Cc1noc2ccccc12)NCC(=O)Nc1ccc(Cl)cc1 ?
Response: active

Prompt: Short answer needed: outcome of this test for O=C(Cn1nnc(-c2ccc(F)cc2)n1)NCCc1ccccc1 ?
Response: active

Prompt: Short answer needed: outcome of this test for CC(C)c1nc2sc3c(N(CCO)CCO)ncnc3c2c2c1COC(C)(C)C2 ?
Response: inactive

Prompt: Short answer needed: outcome of this test for Cc1noc(-c2cccc(=O)n2CC(=O)Nc2ccc(C)c(C)c2)n1 ?
Response: active

Prompt: Short answer needed: outcome of this test for Cc1ccc(C)c(S(=O)(=O)N2CCN(c3ccc4nnc(-c5ccco5)n4n3)CC2)c1 ?
Response: active

Prompt: Short answer needed: outcome of this test for O=C(Cc1cccnc1)Nc1ccc(N2CCN(C3CCCCC3)C2=O)nc1 ?
Response: inactive

Prompt: Short answer needed: outcome of this test for O=C(CCCCn1c(=O)c2ccccc2n(CC(=O)Nc2ccc(F)c(Cl)c2)c1=O)NCc1ccco1 ?
Response: inactive

Prompt: Short answer needed: outcome of this test for COc1ccc(-c2cnnn2-c2ccc(NC(=O)c3c(F)cccc3F)cc2)cc1OC ?
Response: inactive

Prompt: Short answer needed: outcome of this test for O=C(Nc1ccc(F)cc1)Nc1ccccc1OCc1cc(=O)n2ccccc2n1 ?
Response: active

Prompt: Short answer needed: outcome of this test for CCOc1ccc(-n2c(SCC(=O)N3CC(=O)Nc4ccccc43)nnc2-c2ccc(OC)cc2)cc1 ?
Response: active

Prompt: Short answer needed: outcome of this test for Cc1cccc(NC(=O)CSc2ccc(-n3cnc(-c4ccccc4)c3)nn2)c1 ?
Response: active
